Each recorded value in this set is attributed to the RNAGym collection of RNA variant scans (doi:10.7554/elife.80360).

B1: CPEB3 Ribozyme (parent)
chain: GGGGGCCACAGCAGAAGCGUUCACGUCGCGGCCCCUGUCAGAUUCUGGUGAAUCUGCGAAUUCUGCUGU

- Variants of: B1
- ASSAY_REMARKS: self-cleavage, relative activity (ratio to wild type); higher = more cleavage; co-transcriptional
Reported values of self-cleavage for individual entries
Please give the numeric answer without any surrounding text.

Use the examples below as a reference point.
# input Form field: reported self-cleavage of G2U G48U
# output 0.0675

# input Ok, now G2C C66A
# output 0.052

# input Similarly, U38C C66A ?
# output 0.687

Next, consider the following variant.
# input I'd like to know its self-cleavage. The variant in question is G37C U49C
# output 0.286
